assaySystem: Cyclooxygenase-2 (COX-2) (Homo sapiens, UniProt P35354)
Construct: purchased Cayman Chemical Company 560121
Sequence (P35354 18-604): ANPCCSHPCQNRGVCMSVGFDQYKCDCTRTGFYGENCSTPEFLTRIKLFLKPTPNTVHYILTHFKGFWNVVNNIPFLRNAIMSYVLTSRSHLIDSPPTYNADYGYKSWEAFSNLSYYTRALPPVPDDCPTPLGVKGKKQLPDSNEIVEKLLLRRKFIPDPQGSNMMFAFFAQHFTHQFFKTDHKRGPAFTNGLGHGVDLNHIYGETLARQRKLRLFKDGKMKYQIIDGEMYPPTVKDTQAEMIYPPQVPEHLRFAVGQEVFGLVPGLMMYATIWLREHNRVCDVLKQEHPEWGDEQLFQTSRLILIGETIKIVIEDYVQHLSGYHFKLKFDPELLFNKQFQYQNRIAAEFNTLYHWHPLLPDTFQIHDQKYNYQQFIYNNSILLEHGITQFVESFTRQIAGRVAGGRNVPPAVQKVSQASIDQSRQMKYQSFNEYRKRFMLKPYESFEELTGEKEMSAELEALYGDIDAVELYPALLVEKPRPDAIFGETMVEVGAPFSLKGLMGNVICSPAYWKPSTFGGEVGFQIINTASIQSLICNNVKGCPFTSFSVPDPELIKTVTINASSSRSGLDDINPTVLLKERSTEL
measurementNotes: COX Inhibitor Screening Assay Kit (Cayman), PGF2α by ELISA, COX-2
Type: biochemical
conditionContext: compound at 50 μm; relative to PGF2α produced without compound (100%)
assayReadout: Inhibitory effect against COX-2 at 50 μm (% inhibition)

compound | result
COc1ccc(-n2nc(C(=O)NC3CCCC3)cc2-c2ccccn2)nn1 | −1.7 % inhibition

What does the record list as Inhibitory effect against COX-2 at 50 μm (% inhibition) for `COc1ccc(-n2nc(C(=O)NC(C)(C)C)cc2-c2cc(CO)ccn2)cn1` ? −1.9 % inhibition

Return reported Inhibitory effect against COX-2 at 50 μm (% inhibition); argument: `CC(C)(C)NC(=O)c1cc(-c2ccc(O)cn2)n(-c2cccnc2)n1` 4.2 % inhibition

Entry `COc1ccc(-n2nc(C(=O)NC(C)(C)C)cc2-c2cnccn2)cn1` has what Inhibitory effect against COX-2 at 50 μm (% inhibition)? 9.2 % inhibition

Need Inhibitory effect against COX-2 at 50 μm (% inhibition), item `Cc1ccc(-n2nc(C(=O)NC(C)(C)C)cc2-c2ccccn2)cn1` 3.9 % inhibition

// query Inhibitory effect against COX-2 at 50 μm (% inhibition) value for entry `COCC(C)(C)NC(=O)c1cc(-c2ccccn2)n(-c2ccc(OC)nn2)n1` 14.8 % inhibition

Query (compound): `CC(C)(C)NC(=O)c1cc(-c2ccc(Cl)cn2)n(-c2cccnc2)n1` ; field requested: Inhibitory effect against COX-2 at 50 μm (% inhibition) 7.6 % inhibition

Recorded Inhibitory effect against COX-2 at 50 μm (% inhibition) for COc1ccc(-n2nc(C(=O)NCC3CCCO3)cc2-c2ccccn2)cn1 (stereo not drawn) , please? 3.6 % inhibition

// returns reported Inhibitory effect against COX-2 at 50 μm (% inhibition) for input `COc1cnc(-n2nc(C(=O)NC(C)(C)C)cc2-c2ccccn2)cn1` 6.9 % inhibition
